subject_of_test: T1, SNV nucleocapsid protein N wild type (SNVN) (Sin Nombre hantavirus, UniProt Q89462 1-428)
T1 sequence: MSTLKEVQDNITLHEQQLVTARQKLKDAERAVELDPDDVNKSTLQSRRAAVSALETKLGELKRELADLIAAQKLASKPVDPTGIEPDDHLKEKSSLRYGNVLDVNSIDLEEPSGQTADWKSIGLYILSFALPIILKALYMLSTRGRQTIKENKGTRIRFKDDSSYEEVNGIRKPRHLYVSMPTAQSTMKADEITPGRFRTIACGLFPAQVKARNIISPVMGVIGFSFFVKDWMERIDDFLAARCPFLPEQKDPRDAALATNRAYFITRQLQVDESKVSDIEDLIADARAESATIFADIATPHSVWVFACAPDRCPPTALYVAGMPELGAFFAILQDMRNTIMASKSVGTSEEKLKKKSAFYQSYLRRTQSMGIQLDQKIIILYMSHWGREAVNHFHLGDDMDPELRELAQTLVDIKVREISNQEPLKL
test_summary: filter binding
property_name: Kd (nM)
One number for each entry, in nM.

Return reported Kd; argument: GAUAUGUGAG (ssRNA, 5' mRNA cap (enzymatic, Cell Script)) [capped decameric RNA] 120

Where these numbers come from: paper PMC4315616
